Some molecules, each annotated with its measured log10 EC50.
test system: HCV replicon in Huh-7 luc/neo cells; test: Suppression of HCV replicon replication by conditioned media from compound-treated PBMC; format: cell-based, HCV type 1 b; conditions: Hepatitis C virus; conditioned media from compound-treated PBMC on Huh-7 luc/neo replicon cells (compounds 74 onward); read-out: PBMC HUH-7 EC50
All values: log10 EC50 [nM].

// worked examples, log10 EC50 included
CCCCNc1nc(N)ncc1OCCOc1ccnc2cc(OC)ccc12 ... 2.87
CCCCNc1nc(N)ncc1OCc1nc(-c2ccccc2)no1 ... 3.54
CCCCNc1nc(N)ncc1OCc1cc(OCC2CC2)c(OC)cn1 ... 2.22
CCCCNc1nc(N)ncc1OCc1cc2ccccc2cn1 ... 1.66
CCC[C@@H](CCO)Nc1nc(N)ncc1OCc1ccc2ccccc2n1 ... 1.93

// recorded log10 EC50 for CCCCNc1nc(N)ncc1OCCCc1ccc(Cl)c(Cl)c1 : 3.50

// recorded log10 EC50 for CCCCNc1nc(N)ncc1OCc1cccc(CC(=O)OC)c1 : 4.36

// recorded log10 EC50 for CCCCCC(C)Nc1nc(N)ncc1OCc1ccc2ccccc2n1 (stereo not shown) : 4.25

// recorded log10 EC50 for CCCCNc1nc(N)ncc1OCc1ccc(F)cc1 : 2.86

// recorded log10 EC50 for CCCCNc1nc(N)ncc1OCCCc1ccc(F)cc1F : 3.20

----------
system: HCV replicon in Huh-7 luc/neo cells; test: Suppression of HCV replicon replication by conditioned media from compound-treated PBMC; format: cell-based, HCV type 1 b; conditions: Hepatitis C virus; conditioned media from compound-treated PBMC on Huh-7 luc/neo replicon cells (compounds 74 onward); read-out: PBMC HUH-7 EC50
pEC50: −log10 of the molar value.
Threshold rule: pEC50 greater than or equal to 7 is Yes; below that, No.

Past entries and their recorded results:
CCCC[C@H](CCO)Nc1nc(N)ncc1OCc1ccccc1 [Compound 145] ... No
CCCCNc1nc(N)ncc1OCCOc1cccc(OC)c1 [Compound 127] ... No

Query string: Could you please find out whether CCC[C@@H](CCO)Nc1nc(N)ncc1OCCCc1ccccc1 [Compound 165] has pEC50 that meets 7 or exceeds it?
Result string: No

Query string: Could you please find out whether CCCCNc1nc(N)ncc1OCCOc1ccc(C(=O)OC)c(OC)c1 [Compound 134] has pEC50 that meets 7 or exceeds it?
Result string: No

Query string: Could you please find out whether CCCCNc1nc(N)ncc1OCc1cccc2cccnc12 [Compound 184] has pEC50 that meets 7 or exceeds it?
Result string: Yes

Query string: Could you please find out whether CCCCNc1nc(N)ncc1OCc1ncccc1OC [Compound 179] has pEC50 that meets 7 or exceeds it?
Result string: Yes

Query string: Could you please find out whether CCCCNc1nc(N)ncc1OCCOc1ccc(C#N)cc1 [Compound 126] has pEC50 that meets 7 or exceeds it?
Result string: No

----------
target: human TLR8 (wild type sequence) (Homo sapiens); construct: expressed in transfected cells; host or cells: HEK293; experiment: TLR8 cellular NFκB-luc reporter assay, wild type TLR8; assay type: cell-based; design: unit not given here; conditions: lowest effective concentration, wild type TLR8 (compounds 74 onward)
Sequence (Q9NR97 27-1041): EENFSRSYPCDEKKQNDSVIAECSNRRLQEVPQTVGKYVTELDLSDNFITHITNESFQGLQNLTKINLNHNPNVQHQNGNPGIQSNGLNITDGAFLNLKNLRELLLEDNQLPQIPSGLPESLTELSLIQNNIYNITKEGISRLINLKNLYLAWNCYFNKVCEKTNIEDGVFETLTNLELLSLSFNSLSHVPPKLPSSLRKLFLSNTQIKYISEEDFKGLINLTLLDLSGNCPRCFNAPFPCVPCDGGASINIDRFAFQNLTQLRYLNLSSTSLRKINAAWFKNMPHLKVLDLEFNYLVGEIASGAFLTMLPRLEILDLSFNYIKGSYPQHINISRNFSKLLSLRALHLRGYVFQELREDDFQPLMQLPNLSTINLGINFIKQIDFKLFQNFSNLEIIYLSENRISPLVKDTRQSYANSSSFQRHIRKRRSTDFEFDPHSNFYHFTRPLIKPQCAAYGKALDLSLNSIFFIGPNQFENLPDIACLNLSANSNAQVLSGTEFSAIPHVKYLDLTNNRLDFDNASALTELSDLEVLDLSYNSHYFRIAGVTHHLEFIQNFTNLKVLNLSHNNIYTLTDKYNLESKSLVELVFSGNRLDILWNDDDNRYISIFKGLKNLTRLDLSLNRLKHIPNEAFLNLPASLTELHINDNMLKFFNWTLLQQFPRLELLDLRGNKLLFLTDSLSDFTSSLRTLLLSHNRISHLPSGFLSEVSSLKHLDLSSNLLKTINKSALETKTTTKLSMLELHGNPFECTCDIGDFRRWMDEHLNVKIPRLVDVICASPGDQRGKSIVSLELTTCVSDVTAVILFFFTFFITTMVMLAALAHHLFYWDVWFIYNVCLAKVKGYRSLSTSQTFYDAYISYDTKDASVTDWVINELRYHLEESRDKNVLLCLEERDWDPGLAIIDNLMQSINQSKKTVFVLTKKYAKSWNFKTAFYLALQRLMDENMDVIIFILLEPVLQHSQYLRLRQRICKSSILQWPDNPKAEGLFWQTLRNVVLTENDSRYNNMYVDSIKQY
ASSAY_READOUT: TLR 8 wt LEC
No unit in the answer, only the number.

// worked examples, TLR 8 wt LEC included
CCCC[C@@H](CO)Nc1nc(N)ncc1OCc1ncc(C)c(OC)c1C [Compound 194] ... 0.164
CCCCNc1nc(N)ncc1OCc1cc(OC)ccn1 [Compound 171] ... 1.060
CCCCCNc1nc(N)nc(C)c1OCc1ccccc1 [Compound 124] ... 13.650
CCCCNc1nc(N)ncc1OCc1cc(C(=O)OCC)ccn1 [Compound 170] ... 1.750
CCCCNc1nc(N)ncc1OCc1cc2ccccc2cn1 [Compound 166] ... 0.980

// recorded TLR 8 wt LEC for CCCCNc1nc(N)ncc1OCc1cc(-c2ccco2)on1 [Compound 116] : 1.610

// recorded TLR 8 wt LEC for CCCCNc1nc(N)ncc1OCc1ccc(C(=O)OC)o1 [Compound 120] : 3.910

// recorded TLR 8 wt LEC for CCCC[C@@H](CO)Nc1nc(N)ncc1OCc1cc(C)nn1C [Compound 79] : 0.329

// recorded TLR 8 wt LEC for CCC[C@@H](CCO)Nc1nc(N)ncc1OCc1ccc2ccccc2n1 [Compound 188] : 0.530

// recorded TLR 8 wt LEC for CCCCCNc1nc(N)ncc1OC(C)c1ccccc1 (stereo not shown) [Compound 96] : 6.340

// recorded TLR 8 wt LEC for CCCCNc1nc(N)ncc1OCCCc1ccc(OC)c(OC)c1OC [Compound 164] : 23.030

// recorded TLR 8 wt LEC for CCCCNc1nc(N)ncc1OCc1cc2c(cn1)[nH]c1ccccc12 [Compound 159] : 1.080

// recorded TLR 8 wt LEC for CCCCNc1nc(N)ncc1OCc1nn(C)c2cc(OC)c(OC)cc12 [Compound 183] : 1.580

// recorded TLR 8 wt LEC for CCCCNc1nc(N)ncc1OCCOc1ccnc2cc(OC)ccc12 [Compound 141] : 0.704

// recorded TLR 8 wt LEC for CCCCNc1nc(N)ncc1OCc1csc(C)n1 [Compound 191] : 0.743

// recorded TLR 8 wt LEC for CCCCNc1nc(N)ncc1OCc1ccc(C(F)(F)F)o1 [Compound 119] : 6.120
